I'd be grateful if you could share measured switch fluorescence ratio for these entries.
tested on: ATP; test: switch fluorescence ratio, 500 uM ATP over buffer (Cy3 cluster intensity, sum of 5 cycles each) (fold (ratio)); higher = stronger signal-on switching upon ATP binding; sequences stand for … in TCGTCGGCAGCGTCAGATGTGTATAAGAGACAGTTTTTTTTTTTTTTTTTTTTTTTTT…TC; conditions: aptamer strand: ATP DNA aptamer (quencher-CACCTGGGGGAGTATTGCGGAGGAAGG + anchor), 100 nM annealed; ATP concentration: 500 uM;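 further: ATP exposure 15 min at 22 °C before imaging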

Previously resolved entries follow.
TACGGCAGTG
0.998
AGGTTTGGCT
1.01
TGATTGAGAG
1.02

We next turn to a different sequence, shown below.
## Task Fill blank: measured switch fluorescence ratio of the sequence "AGATCGACGG" is ____.
## Result 1.01

* * *

test system: ATP; experiment: switch fluorescence ratio, 500 uM ATP over buffer (Cy3 cluster intensity, sum of 5 cycles each) (fold (ratio)); higher = stronger signal-on switching upon ATP binding; sequences stand for … in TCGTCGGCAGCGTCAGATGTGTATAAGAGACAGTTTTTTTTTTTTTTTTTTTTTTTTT…TC; settings: aptamer strand: ATP DNA aptamer (quencher-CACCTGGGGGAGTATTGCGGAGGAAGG + anchor), 100 nM annealed; ATP concentration: 500 uM;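 further: ATP exposure 15 min at 22 °C before imaging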
I'd be grateful if you could share measured switch fluorescence ratio for these entries.
Give bare numbers.

TGGGGTTA
0.984
GGGCGTTCTG
1.04
TTTTAAAAAA
1
GCCATATTTC
0.998

Parameter requested: switch fluorescence ratio. Apply to each item below.
1. AGCACATGTC
2. GTTTCCAATC

## Result
1: 1.07; 2: 1.02

* * *

I'd be grateful if you could share measured switch fluorescence ratio for these entries.
system: ATP; assay: switch fluorescence ratio, 500 uM ATP over buffer (Cy3 cluster intensity, sum of 5 cycles each) (fold (ratio)); higher = stronger signal-on switching upon ATP binding; sequences stand for … in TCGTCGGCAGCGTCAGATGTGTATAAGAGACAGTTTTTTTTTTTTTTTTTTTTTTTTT…TC; conditions: aptamer strand: ATP DNA aptamer (quencher-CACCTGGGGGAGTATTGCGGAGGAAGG + anchor), 100 nM annealed; ATP concentration: 500 uM;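 further: ATP exposure 15 min at 22 °C before imaging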
Numbers only.

Previously resolved entries follow.
TTGTAAGTTT
0.985
TTTCATAGTT
0.954
CGTGGAGTGG
0.996
CGTTTGTGCA
0.99
TTGATTCAAT
1.17
ACAGGTGGAA
1.23

Parameter requested: switch fluorescence ratio. Apply to each item below.
1. GTTTGGCCGT
2. TTTGAAGAAC
3. TCTTAGACAT
4. TGGGCGAGAA
5. ATATGCCCT
6. GCCGTTTTAC
7. ATGTCCGGGG
8. CTAATAATCG

## Result
1. 0.97
2. 1.01
3. 0.965
4. 0.969
5. 1.04
6. 1.17
7. 0.985
8. 1

* * *

I'd be grateful if you could share measured switch fluorescence ratio for these entries.
system: ATP; experiment: switch fluorescence ratio, 500 uM ATP over buffer (Cy3 cluster intensity, sum of 5 cycles each) (fold (ratio)); higher = stronger signal-on switching upon ATP binding; sequences stand for … in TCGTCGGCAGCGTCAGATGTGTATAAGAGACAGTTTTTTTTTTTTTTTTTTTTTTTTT…TC; settings: aptamer strand: ATP DNA aptamer (quencher-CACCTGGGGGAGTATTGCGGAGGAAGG + anchor), 100 nM annealed; ATP concentration: 500 uM;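 further: ATP exposure 15 min at 22 °C before imaging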

GACGGCTGCT
1.01
ATTCGGGGGT
0.993
GGGGTAAAAC
1.02
ATTTCGTGCG
1.01
TTGGACTGGT
1.04

Parameter requested: switch fluorescence ratio. Apply to each item below.
1. AGGTTTGGTT
2. GAGTCCGCCT
3. CTCTATTGTG
4. AGTAATTTGC

## Result
1: 1.01; 2: 1.6; 3: 0.964; 4: 1.02

* * *

system: ATP; experiment: switch fluorescence ratio, 500 uM ATP over buffer (Cy3 cluster intensity, sum of 5 cycles each) (fold (ratio)); higher = stronger signal-on switching upon ATP binding; sequences stand for … in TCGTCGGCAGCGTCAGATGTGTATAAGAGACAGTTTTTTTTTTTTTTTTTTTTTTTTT…TC; conditions: aptamer strand: ATP DNA aptamer (quencher-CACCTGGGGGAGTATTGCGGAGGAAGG + anchor), 100 nM annealed; ATP concentration: 500 uM;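 further: ATP exposure 15 min at 22 °C before imaging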
ENDPOINT: switch fluorescence ratio
Numbers only.

Previously resolved entries follow.
TAAGTGAAAA
0.995
TAGGGGGTCT
1.21
ATGAAAGTAG
1.01

## Task Fill blank: measured switch fluorescence ratio of the sequence "TAAAGGTAAT" is ____.
## Result 1.01

* * *

test system: ATP; experiment: switch fluorescence ratio, 500 uM ATP over buffer (Cy3 cluster intensity, sum of 5 cycles each) (fold (ratio)); higher = stronger signal-on switching upon ATP binding; sequences stand for … in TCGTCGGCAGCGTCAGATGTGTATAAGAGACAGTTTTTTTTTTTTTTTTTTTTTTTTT…TC; details: aptamer strand: ATP DNA aptamer (quencher-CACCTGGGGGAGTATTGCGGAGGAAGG + anchor), 100 nM annealed; ATP concentration: 500 uM;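 further: ATP exposure 15 min at 22 °C before imaging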
ENDPOINT: switch fluorescence ratio
Give bare numbers.

Previously resolved entries follow.
GGGAATGTTA
0.99
ACCAATTTGC
1.05

Parameter requested: switch fluorescence ratio. Apply to each item below.
1. CGAAACGGGG
2. AGGTGTAATT

## Result
[0.983, 0.987]

Parameter requested: switch fluorescence ratio. Apply to each item below.
1. ATATATAGTT
2. ATTTCGGAGA
3. CCGGGTATTG
4. ATGGCACCGG
5. ATATAAGTGA

## Result
1: 1.04; 2: 0.971; 3: 1.03; 4: 1.02; 5: 0.954

## Task Fill blank: measured switch fluorescence ratio of the sequence "CGAGGCAGCA" is ____.
## Result 1.2

* * *

tested on: ATP; experiment: switch fluorescence ratio, 500 uM ATP over buffer (Cy3 cluster intensity, sum of 5 cycles each) (fold (ratio)); higher = stronger signal-on switching upon ATP binding; sequences stand for … in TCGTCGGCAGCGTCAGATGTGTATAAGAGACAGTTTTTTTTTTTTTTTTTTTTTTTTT…TC; details: aptamer strand: ATP DNA aptamer (quencher-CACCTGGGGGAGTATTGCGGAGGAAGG + anchor), 100 nM annealed; ATP concentration: 500 uM;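 further: ATP exposure 15 min at 22 °C before imaging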
ENDPOINT: switch fluorescence ratio
Give bare numbers.

TAAGGCGGTC
0.991

Parameter requested: switch fluorescence ratio. Apply to each item below.
1. GATTTGTAGG
2. TAGTTTCGAT

## Result
[1.01, 0.977]

Parameter requested: switch fluorescence ratio. Apply to each item below.
1. AGGTTTTTCA
2. GACTTGAGTT
3. CGATATTGGC
4. CCGTGTTCGA
5. TATGGTGCCT
6. TGAAATTCTT
7. AAGGCGAAAA
8. TATCAACTTG

## Result
1: 0.983; 2: 0.997; 3: 0.985; 4: 1.01; 5: 1.02; 6: 1.01; 7: 0.976; 8: 1.02

* * *

system: ATP; assay: switch fluorescence ratio, 500 uM ATP over buffer (Cy3 cluster intensity, sum of 5 cycles each) (fold (ratio)); higher = stronger signal-on switching upon ATP binding; sequences stand for … in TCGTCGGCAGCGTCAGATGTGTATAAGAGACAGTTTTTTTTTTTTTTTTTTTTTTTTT…TC; settings: aptamer strand: ATP DNA aptamer (quencher-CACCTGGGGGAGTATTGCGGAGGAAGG + anchor), 100 nM annealed; ATP concentration: 500 uM;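 further: ATP exposure 15 min at 22 °C before imaging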
ENDPOINT: switch fluorescence ratio

AAGATAGTGT
0.994
CGGCCATTCG
0.982

We next turn to a different sequence, shown below.
## Task Fill blank: measured switch fluorescence ratio of the sequence "TTTGGTGATT" is ____.
## Result 0.982

* * *

I'd be grateful if you could share measured switch fluorescence ratio for these entries.
tested on: ATP; assay: switch fluorescence ratio, 500 uM ATP over buffer (Cy3 cluster intensity, sum of 5 cycles each) (fold (ratio)); higher = stronger signal-on switching upon ATP binding; sequences stand for … in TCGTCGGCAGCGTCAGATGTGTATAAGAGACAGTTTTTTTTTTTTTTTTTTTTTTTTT…TC; conditions: aptamer strand: ATP DNA aptamer (quencher-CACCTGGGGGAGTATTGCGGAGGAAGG + anchor), 100 nM annealed; ATP concentration: 500 uM;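 further: ATP exposure 15 min at 22 °C before imaging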
Give bare numbers.

Previously resolved entries follow.
TCGCATTTTT
1.11
GGGTGGGTGC
1.02
CTTGTTTGGG
1
CCTGTAGTCT
1.04
TTTCACTATT
1.01

Parameter requested: switch fluorescence ratio. Apply to each item below.
1. ATGTATTTAT
2. CCGAATTGGG
3. TGTTTGTTTC
4. GTTGGGACGT
5. CCTGGATCGG

## Result
[1.04, 1.01, 0.973, 0.973, 1.09]

Parameter requested: switch fluorescence ratio. Apply to each item below.
1. TACTCCAAGA
2. GGAGTTAGTC
3. AGGCCCACGG
4. CCAGCCAATA
5. AAGCACCCGT

## Result
1. 2.98
2. 1.01
3. 1.01
4. 3.36
5. 1.12
